kon reference
Biological target: T1, cyno TF ECD-His (cTF-his) (monkey (cyno))
T1 construct: also called bio-cTF-his; monkey TF-His protein
T1 chain: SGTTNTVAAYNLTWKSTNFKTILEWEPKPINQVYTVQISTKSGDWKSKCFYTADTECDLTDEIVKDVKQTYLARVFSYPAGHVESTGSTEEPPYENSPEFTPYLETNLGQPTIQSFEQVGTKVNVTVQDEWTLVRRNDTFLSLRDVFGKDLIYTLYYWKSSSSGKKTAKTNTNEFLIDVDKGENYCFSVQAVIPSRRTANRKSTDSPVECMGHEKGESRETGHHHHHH
Experiment: SPR Biacore T200, antibody on Protein A chip, TF-His as analyte, 1:1 model
Your answer should be a plain number; it is taken to be in M⁻¹ s⁻¹.

Previously resolved entries follow.
# binder, endpoint, observed_measurement
measured = [
    ("hu310-2 (antibody, human IgG1, kappa, V domains shown) VH: EVQLVQSGAEVKKPGASVKVSCKASGYSFTGYYMNWVRQAPGQGLEWMGEINPSTGGSTYNQKFKARVTMTVDQSTSTVYMELSSLRSEDTAVYYCARRELGGPFGYWGQGTTVTVSS VL: SIVMTQSPDSLAVSLGERATINCKASQSVSNGIAWYQQKPGQSPKLLIYFASNRYTGVPDRFSGSGYGTDFTLTISSLQAEDVAVYYCQQDYSSPWTFGGGTKVEIKR", "kon", 332000),
    ("hu67-15 (antibody, human IgG1, kappa, V domains shown) VH: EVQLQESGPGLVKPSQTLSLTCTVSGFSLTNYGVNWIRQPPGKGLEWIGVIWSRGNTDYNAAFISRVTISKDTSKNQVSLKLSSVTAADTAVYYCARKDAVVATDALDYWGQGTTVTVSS VL: DIQMTQSHKFLSASVGDRVTITCKASQDVSTAVAWYQQKPGKSPKLLIYSTSYRYTGVPSRFSGSGSGTDFTFTISSLQPEDIATYYCQQHYSTPYTFGGGTKVEIKR", "kon", 31200),
]

Moving on to another binder below.
# input Give kon for the following binder: hu67-2 (antibody, human IgG1, kappa, V domains shown) VH: EVTLKQSGPVLVKPTQTLTLTCTVSGFSLTNYGVNWIRQPPRKGLEWLGVIWSRGNTDYNAAFISRLTISKDNSKSQVVLKMTNMDPVDTATYYCARKDAVVATDALDYWGQGTTVTVSS VL: DIVMTQSPKSLAVSLGERATINCKASQDVSTAVAWYQQKPGQPPKLLIYSTSYRYTGVPDRFSGSGSGTDFTLTISSLQAEDVAVYYCQQHYSTPYTFGGGTKVEIKR
# output 33700

Where these numbers come from: patent EP4703388A1
